TEST DESCRIPTION: protein stability index of a GFP-peptide fusion (GPS, HEK-293T) (PSI 1-6); higher = more stable;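 further: 24-mer peptide tiles fused after GFP, lentivirally expressed, FACS-sorted into six equal bins by GFP/DsRed ratio, decoded by Illumina sequencing, PSI is the read-weighted mean bin number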
RECORDED CONDITIONS: treatment: DMSO; c terminus: a fixed tail appended
PROPERTY NAME: protein stability index

Solved entries:
ILHMNGSQSSTYRGTYEQDGRFEK [ZNF396] ... 2.86
GGLEHVPSSSSIHNGDMEKILLDA [BNIP3L] ... 4.85
AYVAMIPQCIKEEDTPSDNDSGIC [ATF4] ... 4.25

Let's switch to this sequence now.
(Q) Please report protein stability index for the following sequence: LHTFTPAGRPRAERRPRRVEAERP [FAM189A2]
(A) 4.45

---

TEST DESCRIPTION: protein stability index of a GFP-peptide fusion (GPS, HEK-293T) (PSI 1-6); higher = more stable
RECORDED CONDITIONS: treatment: MLN4924 1 uM, 8 h; c terminus: a fixed tail appended
Below: a set of entries, each annotated with reported protein stability index.
// return just the number, without any unit appended

(Q) Please report protein stability index for the following sequence: PVTICCGHSFCRPCLCLSWEEAQS [TRIM43]
(A) 2.95

(Q) Please report protein stability index for the following sequence: NLGPKSKVLILRNHGLVSVGESVE [ADD1]
(A) 3.05

(Q) Please report protein stability index for the following sequence: QYHHSKIRNRGYNLIYRSTRHLKR [TMEM192]
(A) 2.98

---

TEST DESCRIPTION: protein stability index of a GFP-peptide fusion (GPS, HEK-293T) (PSI 1-6); higher = more stable
RECORDED CONDITIONS: treatment: MLN4924 1 uM, 8 h; c terminus: a fixed tail appended
PROPERTY NAME: protein stability index
// return just the number, without any unit appended

Solved entries:
VIAYDHSRVLLSAIEGIPGSDYVN [PTPRD] ... 1.79
GAYDFPSPEWDTVTPEAKNLINQM [CAMK2B] ... 3.85
SRGSSVSMSGGRFRCPTCRHEVIM [TRIM63] ... 2.4
GVCIRRCTVLRDARIRSHSWLESC [GMPPB] ... 2.15
SYPMRRSYRYKLLNWAYQQVQQNK [STEAP1] ... 2.36

(Q) Please report protein stability index for the following sequence: LESLEDTHIMKGEDDALSDKHGCP [TRIB1]
(A) 5.37

(Q) Please report protein stability index for the following sequence: RQPVSFHRVKLTNSTLDPHGHLIL [TBX6]
(A) 2.27

(Q) Please report protein stability index for the following sequence: LDHCANRVLMYGSELDADHPGFKD [TPH1]
(A) 4.81

(Q) Please report protein stability index for the following sequence: PGGRPEVIYNYVQRPFIRMSWEKE [BTBD10]
(A) 3.21

(Q) Please report protein stability index for the following sequence: KGVNRKLGRTGLYPSYKVREKIET [FUT8]
(A) 3.4

(Q) Please report protein stability index for the following sequence: RKDVCKSTHHGCEHICVNNGNSYI [MATN2]
(A) 3.07

(Q) Please report protein stability index for the following sequence: SVRMRRAEKSVAPSNTGSRTTSVR [NEK8]
(A) 4.6

(Q) Please report protein stability index for the following sequence: ELMPSSRLWSLSYTKLPSSLQSTG [SLC25A39]
(A) 2.47

(Q) Please report protein stability index for the following sequence: AEKDRRLKKKHQLLEDARRKGMPF [PPFIA4]
(A) 4.29

(Q) Please report protein stability index for the following sequence: SPPLHANTSLHVFVLDENDNAPAV [PCDHGC5]
(A) 3.81

(Q) Please report protein stability index for the following sequence: FMEMNQKLFDDCTQQFKAEKLKEK [PPP2R5C]
(A) 4.43
